# protocol.description: In vivo pharmacokinetics, lung tissue homogenate (UPLC-MS/MS)
# Set-up: species or system rat
# settings: male, Sprague-Dawley (SD), inhaled; rat lung tissue homogenate; pulmonary administration BA/AH-DPI 9 mg/kg; 15 min; read-out: Drug concentration of AH in lung tissue
Structures can show the parent of a compound that is named as a salt.
property.name: concentration at 15 min (ng/mL)
API: value field is a number in ng/mL; no unit string.

For the molecule shown here, Nc1c(Br)cc(Br)cc1CNC1CCC(O)CC1 (stereo not shown) [AH, ambroxol hydrochloride] , give the reported concentration at 15 min. 1320

---

# protocol.description: In vivo pharmacokinetics, plasma (UPLC-MS/MS)
# Set-up: species or system rat
# settings: male, Sprague-Dawley (SD), inhaled or intranasal; AH in rat plasma; pulmonary administration group, BA/AH-DPI 9 mg/kg
Where a name gives a salt, the structure may show the parent alone.
property.name: Tmax (min)
Enter your answer as a number in min; do not include the unit.

Any idea what its Tmax is? The compound is Nc1c(Br)cc(Br)cc1CNC1CCC(O)CC1 (stereo not shown) [AH, ambroxol hydrochloride] 4.02

---

# protocol.description: In vivo pharmacokinetics, plasma (UPLC-MS/MS)
# Design: species or system rat
# settings: male, SD, inhaled; rat plasma, pulmonary administration of BA/AH-DPI vs tail intravenous injection, 9 mg/kg; read-out: Absolute bioavailability
Structures can show the parent of a compound that is named as a salt.
Would you mind telling me the reported bioavailability of each entry?
Express it in %; write the number only.

Quick check: bioavailability of Nc1c(Br)cc(Br)cc1CNC1CCC(O)CC1 (centres unmarked) [AH, ambroxol hydrochloride] ? 53.5

Queued: O=C(O)[C@H]1O[C@@H](Oc2cc3oc(-c4ccccc4)cc(=O)c3c(O)c2O)[C@H](O)[C@@H](O)[C@@H]1O 60.7

---

# protocol.description: In vivo pharmacokinetics, lung tissue homogenate (UPLC-MS/MS)
# Parameters: species or system rat
# settings: male, Sprague-Dawley (SD), inhaled; rat lung tissue homogenate; pulmonary administration BA/AH-DPI 9 mg/kg; 120 min; read-out: Drug concentration of BA in lung tissue
property.name: concentration at 120 min (ng/mL)
Numeric answer only, unit ng/mL assumed.

Looking for the measured concentration at 120 min of O=C(O)[C@H]1O[C@@H](Oc2cc3oc(-c4ccccc4)cc(=O)c3c(O)c2O)[C@H](O)[C@@H](O)[C@@H]1O , can you help? 235

---

# protocol.description: In vivo pharmacokinetics, lung tissue homogenate (UPLC-MS/MS)
# Design: species or system rat
# settings: male, Sprague-Dawley (SD); rat lung tissue homogenate; tail intravenous injection BA/AH-DPI saline solution 9 mg/kg; 120 min; read-out: Drug concentration of AH in lung tissue
Structures can show the parent of a compound that is named as a salt.
property.name: concentration at 120 min (ng/mL)
Write the value in ng/mL as a bare number.

Fill in: concentration at 120 min of Nc1c(Br)cc(Br)cc1CNC1CCC(O)CC1 (stereo not shown) [AH, ambroxol hydrochloride] is ___ 135

---

# protocol.description: In vivo pharmacokinetics, lung tissue homogenate (UPLC-MS/MS)
# Set-up: species or system rat
# settings: male, Sprague-Dawley (SD), lung tissue (homogenate supernatant); AH in rat lung tissue; tail intravenous injection group, 9 mg/kg
# Protocol: SPF-grade healthy SD male rats, body weight 180-220 g, purchased from SPF (Beijing) Biotechnology Co., Ltd (Certificate No. SCXK (Beijing) 2019-0010), were conventionally reared under (23±2)° C., humidity: (50±10)%. […] 100 μL of the plasma sample or lung tissue supernatant was precisely absorbed, and 200 μL (100 ng/mL) of methanol solution containing the internal standard was added. […] The contents of BA and AH were determined by UPLC-MS/MS method. […]
Where a name gives a salt, the structure may show the parent alone.
property.name: Cmax (ng/g)
Quick note: give the figure in ng/g, leave out the unit.

Value lookup for Cmax; key = Nc1c(Br)cc(Br)cc1CNC1CCC(O)CC1 (stereo not shown) [AH, ambroxol hydrochloride] 12900

Values were extracted from patent US20240115496A1.
